assay: qHTS assay to identify small molecule antagonists of the estrogen related receptor (ERR) signaling pathway from Tox21 library - cell viability counter screen (AID 1224834); settings: ERR reporter cells viability, CellTiter-Fluor, 17.5 h; series mostly up to 92.4 µM; note: nearly all actives have a fitted effect of over 30% in size
Results filed as inconclusive are left out. The source made the active and inactive calls. Calls come from the whole dose curve; as a rule, active = well fitted cell-killing curve with a large enough effect in the repeat runs; inconclusive = weak or mixed curves; inactive = flat fitted curve, though single readings scatter.
Hello, when you answer, please use one of the following outcomes: 1 (active), -1 (inactive)

# compound, cat
data = [
    ("Cc1cc(Cl)ccc1OCC(=O)O", -1),
    ("CCCC[n+]1ccccc1C", -1),
    ("C1CCC(NC2CCCCC2)CC1", -1),
    ("CCNc1nc(Cl)nc(NCC)n1", -1),
    ("O=C(O)C(Cl)Cl", -1),
    ("CCCCCCCCCCCCOS(=O)(=O)O", -1),
    ("CCCCCCn1cc[n+](C)c1", -1),
    ("C[N+](C)(C)Cc1ccccc1", -1),
]

Here is another compound to look at.
[ask] Which outcome was entered for the compound `CN(C)[C@@H]1C(=O)C(C(N)=O)=C(O)[C@@]2(O)C(=O)C3=C(O)c4c(O)cccc4[C@@](C)(O)[C@H]3[C@H](O)[C@@H]12` in this test?
[reply] -1

---

assay: qHTS assay to identify small molecule agonists of the retinoic acid receptor (RAR) signaling pathway (AID 1159553); conditions: C3RL4 RARE luciferase reporter, agonist, 6 h; series mostly up to 73.3 µM
Records with an inconclusive call do not appear. Calls of active or inactive are those of the source. Calls come from the whole dose curve; as a rule, active = well fitted activation curve with a large enough effect in the repeat runs; inconclusive = weak or mixed curves, or effect the other way; inactive = no such curve, though single readings can be large or run the other way.
Hello, when you answer, please use one of the following outcomes: t = active, f = inactive

# compound, cat
rows = [
    ("Cc1cc(-c2ccc(N)c(C)c2)ccc1N", "t"),
    ("COc1ccccc1N", "f"),
    ("OCCOc1ccccc1", "f"),
]

[ask] Which outcome was entered for the compound `Cc1cc(Cl)ccc1N` in this test?
[reply] f

[ask] Which outcome was entered for the compound COCC(=O)N(c1c(C)cccc1C)C(C)C(=O)OC (stereo unspecified) in this test?
[reply] f

[ask] Which outcome was entered for the compound `O=C(O)CCl` in this test?
[reply] f

---

test: qHTS assay to identify small molecule antagonists of the thyroid receptor (TR) signaling pathway - cell viability counter screen (AID 743064); details: GH3.TRE-Luc viability, CellTiter-Fluor, 24 h; series mostly up to 70.3 µM; note: nearly all actives have a fitted effect of over 50% in size
Inconclusive results are not listed. Calls of active or inactive are those of the source. Calls come from the whole dose curve; as a rule, active = well fitted cell-killing curve with a large enough effect in the repeat runs; inconclusive = weak or mixed curves, or effect the other way; inactive = no such curve, though single readings can be large or run the other way.
Hello, when you answer, please use one of the following outcomes: active, inactive

# smiles-str, cat
measured = [
    ("C1CCC(NC2CCCCC2)CC1", "inactive"),
    ("CCCn1cc[n+](C)c1", "inactive"),
    ("Cc1cc(Cl)ccc1OCC(=O)O", "inactive"),
    ("O=c1[nH]c(=O)n(Cl)c(=O)n1Cl", "inactive"),
    ("CCCCCCCCn1cc[n+](C)c1", "active"),
    ("COc1ccccc1N", "inactive"),
]

[ask] Which outcome was entered for the compound `CCCCCCCCCCCCOS(=O)(=O)O` in this test?
[reply] inactive

[ask] Which outcome was entered for the compound `O=S(=O)(O)O` in this test?
[reply] inactive

---

experiment: Human pregnane X receptor (PXR) small molecule agonists, qHTS cell viability counter screen (AID 1346977); conditions: PXR-Luc HepG2 viability, CellTiter-Fluor, 24 h; series mostly up to 92.4 µM; note: nearly all actives have a fitted effect of over 50% in size
Results filed as inconclusive are left out. Active and inactive are the calls of the source. Calls follow the shape of the dose curve; as a rule, active = well fitted cell-killing curve with a large enough effect in the repeat runs; inconclusive = weak or mixed curves, or effect the other way; inactive = flat fitted curve, though single readings scatter.
endpoint-label: outcome

Consider the reported outcome for these compounds:
# compound, endpoint-label, obs-value
data = [
    ("O=[N+]([O-])c1ccccc1O", "outcome", "inactive"),
    ("COc1ccccc1N", "outcome", "inactive"),
    ("CCCC[N+]1(C)CCCC1", "outcome", "inactive"),
    ("O=P1(N(CCCl)CCCl)NCCCO1 (stereo unspecified)", "outcome", "inactive"),
    ("CCC[N+]1(C)CCCCC1", "outcome", "inactive"),
]

[ask] Please list outcome recorded for the compound `CCCC[n+]1ccccc1C`
[reply] inactive

---

Assay: qHTS assay to identify small molecule antagonists of the sonic hedgehog signaling (Shh) pathway (AID 1259369); note: nearly all actives have a fitted effect of over 45% in size
Conditions: NIH/3T3 Gli1-Luc reporter, Shh antagonist, luminescence 24 h; series mostly up to 92.4 µM
Excerpt: U.S. Tox21 Program National Center for Advancing Translational Sciences [NCATS] NIH Chemical Genomics Center [NCGC] U.S. Environmental Protection Agency [EPA] National Institutes of Environmental Health Sciences [NIEHS] National Toxicology Program [NTP] U.S. Food and Drug Administration [FDA] Tox21 Assay Overview: The sonic hedgehog (Shh) pathway is essential for normal embryonic development. Dysregulation of the Shh pathway can cause severe developmental defects in organs. […]
Results filed as inconclusive are left out. Active and inactive are the calls of the source. Calls follow the shape of the full dose curve.
Hello, when you answer, please use one of the following outcomes: yes (1) = active, no (0) = inactive

For orientation, consider the following solved cases.
# smiles-str, cat
measured = [
    ("C1CCC(NC2CCCCC2)CC1", "no (0)"),
    ("O=C(O)CC(O)(CC(=O)O)C(=O)O", "no (0)"),
]

[ask] Which outcome was entered for the compound `Nc1ccc(Cl)cc1` in this test?
[reply] no (0)

[ask] Which outcome was entered for the compound `COP(=O)(OC)OC=C(Cl)Cl` in this test?
[reply] no (0)

[ask] Which outcome was entered for the compound `CNC` in this test?
[reply] no (0)

---

assay: qHTS RealTime-Glo MT Cell Viability Assay in HEK293 cells - 0 hour (AID 1224880); settings: RealTime-Glo luminescence; series mostly up to 76.8 µM; note: top concentration of the series differs between compounds; nearly all actives have a fitted effect of over 45% in size
Inconclusive results are not listed. Activity calls are given as the source filed them. The call rests on the fitted dose curve; in most records, active means well fitted cell-killing curve with a large enough effect in the repeat runs; inconclusive means weak or mixed curves, or effect the other way; inactive means flat fitted curve, though single readings scatter.
endpoint-label: outcome

Consider the reported outcome for these molecules:
# molecule, outcome
measured = [
    ("COP(=O)(OC)OC=C(Cl)Cl", "inactive"),
    ("COc1ccc(N)cc1", "inactive"),
    ("CC(Cl)(Cl)C(=O)O", "inactive"),
    ("O=C(O)C(Cl)Cl", "inactive"),
]

[ask] Please list outcome recorded for the molecule `Cc1cc(Cl)ccc1OCC(=O)O`
[reply] inactive

[ask] Please list outcome recorded for the molecule `CC(=O)[O][Hg][c]1ccccc1`
[reply] inactive

[ask] Please list outcome recorded for the molecule `O=[N+]([O-])O`
[reply] inactive

[ask] Please list outcome recorded for the molecule `CC(=O)O`
[reply] inactive

[ask] Please list outcome recorded for the molecule CCC(=O)C(CC(C)N(C)C)(c1ccccc1)c1ccccc1 (stereo not drawn)
[reply] inactive

---

assay: qHTS assay for small molecule activators of the heat shock response signaling pathway - cell viability counter screen (AID 743209); conditions: HSE-bla HeLa viability, CellTiter-Glo luminescence, 5 h; series mostly up to 62.6 µM; note: nearly all actives have a fitted effect of over 50% in size
Inconclusive results are not listed. Activity calls are given as the source filed them. The call rests on the fitted dose curve; in most records, active means well fitted cell-killing curve with a large enough effect in the repeat runs; inconclusive means weak or mixed curves, or effect the other way; inactive means no such curve, though single readings can be large or run the other way.

# smiles-str, outcome
records = [
    ("CC(Cl)(Cl)C(=O)O", "inactive"),
    ("N#CS", "inactive"),
    ("Cc1cc(Cl)ccc1N", "inactive"),
]

---

assay: qHTS RealTime-Glo MT Cell Viability Assay in HEK293 cells - 16 hour (AID 1224872); conditions: RealTime-Glo luminescence; series mostly up to 76.8 µM; note: nearly all actives have a fitted effect of over 50% in size
Records with an inconclusive call do not appear. Calls of active or inactive are those of the source. The call rests on the fitted dose curve; in most records, active means well fitted cell-killing curve with a large enough effect in the repeat runs; inconclusive means weak or mixed curves, or effect the other way; inactive means flat fitted curve, though single readings scatter.
Hello, when you answer, please use one of the following outcomes: active, inactive

For orientation, consider the following solved cases.
# molecule, cat
data = [
    ("CCCCCC[n+]1ccccc1", "inactive"),
    ("C=CCOC(Cn1ccnc1)c1ccc(Cl)cc1Cl (configuration not stated)", "active"),
    ("COP(=O)(OC)OC=C(Cl)Cl", "inactive"),
    ("CCC(=O)C(CC(C)N(C)C)(c1ccccc1)c1ccccc1 (configuration not stated)", "inactive"),
    ("COc1ccccc1N", "inactive"),
    ("C1CCC(NC2CCCCC2)CC1", "inactive"),
    ("Nc1ccccc1", "inactive"),
    ("CCCC[N+]1(C)CCCC1", "inactive"),
]

[ask] Which outcome was entered for the molecule `CC[N+](CC)(CC)CC` in this test?
[reply] inactive

[ask] Which outcome was entered for the molecule `O=C(O)c1nc(Cl)ccc1Cl` in this test?
[reply] inactive

[ask] Which outcome was entered for the molecule `CC[N+]1(C)CCCC1` in this test?
[reply] inactive

[ask] Which outcome was entered for the molecule `CCCCn1cc[n+](C)c1` in this test?
[reply] inactive

[ask] Which outcome was entered for the molecule `CCCC[N+]1(C)CCCCC1` in this test?
[reply] inactive

---

experiment: qHTS RealTime-Glo MT Cell Viability Assay in HEK293 cells - 8 hour (AID 1224887); conditions: RealTime-Glo luminescence; series mostly up to 76.8 µM
Results filed as inconclusive are left out. Calls of active or inactive are those of the source. Calls follow the shape of the dose curve; as a rule, active = well fitted cell-killing curve with a large enough effect in the repeat runs; inconclusive = weak or mixed curves, or effect the other way; inactive = flat fitted curve, though single readings scatter.
Hello, when you answer, please use one of the following outcomes: class 1 (active), class 0 (inactive)

For orientation, consider the following solved cases.
# compound, cat
records = [
    ("CCC(=O)C(CC(C)N(C)C)(c1ccccc1)c1ccccc1 (centres undefined)", "class 0"),
    ("C[C@]12CCC(=O)C=C1CC[C@@H]1[C@@H]2CC[C@]2(C)C(=O)CC[C@@H]12", "class 0"),
    ("CCn1cc[n+](C)c1C", "class 0"),
]

Here is another compound to look at.
[ask] Which outcome was entered for the compound `CCCCn1cc[n+](C)c1` in this test?
[reply] class 0
